- Setup Conditions: in NMP, 318.15 K
Measurement Type: solubility (mole fraction)
Answers are plain numbers.

What value of measured solubility (mole fraction) is listed for CC1=NNC(=O)N(/N=C/c2cccnc2)C1 ? 0.00506

* * *

- Setup Conditions: in 1,4-dioxane, 308.15 K
Measurement Type: solubility (mole fraction)
One number for each entry.

What value of measured solubility (mole fraction) is listed for CC1=NNC(=O)N(/N=C/c2cccnc2)C1 ? 0.000842

* * *

- Setup Conditions: in n-butanol, 308.15 K
Measurement Type: solubility (mole fraction)

What value of measured solubility (mole fraction) is listed for CC1=NNC(=O)N(/N=C/c2cccnc2)C1 ? 0.00046
